Reference source for all entries: ChEMBL document CHEMBL1134629

# pKi listing for each entry below
Target Or System: Adenosine transporter 1 (Trypanosoma brucei)
Sequence (Q9Y0I0 whole entry): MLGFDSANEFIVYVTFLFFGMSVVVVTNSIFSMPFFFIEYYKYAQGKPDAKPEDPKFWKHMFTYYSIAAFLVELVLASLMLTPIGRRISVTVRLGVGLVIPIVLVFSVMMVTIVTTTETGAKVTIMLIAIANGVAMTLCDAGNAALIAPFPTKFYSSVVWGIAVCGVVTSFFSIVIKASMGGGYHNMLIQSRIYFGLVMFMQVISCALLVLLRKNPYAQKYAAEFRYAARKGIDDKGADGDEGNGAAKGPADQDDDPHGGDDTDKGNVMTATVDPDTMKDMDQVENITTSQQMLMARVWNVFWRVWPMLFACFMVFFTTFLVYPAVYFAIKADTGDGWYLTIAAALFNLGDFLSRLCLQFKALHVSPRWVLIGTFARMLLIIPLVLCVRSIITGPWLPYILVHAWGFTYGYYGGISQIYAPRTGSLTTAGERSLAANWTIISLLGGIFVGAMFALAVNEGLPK
Procedure Text: Ability to inhibit adenosine uptake by the P2 transporter in Trypanosoma brucei
pKi: −log10 of the molar value.

- Molecule: "CN(C)c1nc(NCCCNCCCCCCCCCNCCCNc2nc(N(C)C)nc(N(C)C)n2)nc(N(C)C)n1"
  Target Or System: "Adenosine transporter 1 (Trypanosoma brucei)"
  pKi: 4.54
- Molecule: "Nc1nc(N)nc(NCCCNCCCCCCCCCNCCCNc2nc(N)nc(N)n2)n1"
  Target Or System: "Adenosine transporter 1 (Trypanosoma brucei)"
  pKi: 4.72
- Molecule: "CNc1nc(NC)nc(NCCCNCCCCCCCCCCCCNCCCN)n1"
  Target Or System: "Adenosine transporter 1 (Trypanosoma brucei)"
  pKi: 4.60
- Molecule: "CNc1nc(CN(CCCNCCCCCCCCCNCCCN(Cc2nc(NC)nc(NC)n2)Cc2nc(NC)nc(NC)n2)Cc2nc(NC)nc(NC)n2)nc(NC)n1"
  Target Or System: "Adenosine transporter 1 (Trypanosoma brucei)"
  pKi: 4.52
- Molecule: "CNc1nc(N)nc(NCCCNCCCCCCCCCCCCNCCCN)n1"
  Target Or System: "Adenosine transporter 1 (Trypanosoma brucei)"
  pKi: 6.39
- Molecule: "CN(C)c1nc(N)nc(CN(CCCNCCCCCCCCCNCCCN(Cc2nc(N)nc(N(C)C)n2)Cc2nc(N)nc(N(C)C)n2)Cc2nc(N)nc(N(C)C)n2)n1"
  Target Or System: "Adenosine transporter 1 (Trypanosoma brucei)"
  pKi: 4.77
- Molecule: "CN(C)c1nc(NCCCNCCCCCCCCCCCCNCCCN)nc(N(C)C)n1"
  Target Or System: "Adenosine transporter 1 (Trypanosoma brucei)"
  pKi: 6.22
- Molecule: "Nc1nc(N)nc(NCCCNCCCCCCCCCCCCNCCCNc2nc(N)nc(N)n2)n1"
  Target Or System: "Adenosine transporter 1 (Trypanosoma brucei)"
  pKi: 6.30
- Molecule: "Nc1nc(N)nc(CN(CCCNCCCCCCCCCNCCCN(Cc2nc(N)nc(N)n2)Cc2nc(N)nc(N)n2)Cc2nc(N)nc(N)n2)n1"
  Target Or System: "Adenosine transporter 1 (Trypanosoma brucei)"
  pKi: 4.09
- Molecule: "CN(C)c1nc(N)nc(NCCCNCCCCCCCCCCCCNCCCN)n1"
  Target Or System: "Adenosine transporter 1 (Trypanosoma brucei)"
  pKi: 6.00
- Molecule: "CNc1nc(NC)nc(NCCCNCCCCCCCCCCCCNCCCNc2nc(NC)nc(NC)n2)n1"
  Target Or System: "Adenosine transporter 1 (Trypanosoma brucei)"
  pKi: 5.49
- Molecule: "Nc1nc(N)nc(NCCCNC2CCC(NCCCNc3nc(N)nc(N)n3)CC2)n1 (stereo not given)"
  Target Or System: "Adenosine transporter 1 (Trypanosoma brucei)"
  pKi: 3.90
- Molecule: "CNc1nc(N)nc(NCCCNCCCCCCCCCCCCNCCCNc2nc(N)nc(NC)n2)n1"
  Target Or System: "Adenosine transporter 1 (Trypanosoma brucei)"
  pKi: 6.87
- Molecule: "CN(C)c1nc(NCCCNCCCCCCCCCCCCNCCCNc2nc(N(C)C)nc(N(C)C)n2)nc(N(C)C)n1"
  Target Or System: "Adenosine transporter 1 (Trypanosoma brucei)"
  pKi: 5.60
- Molecule: "CNc1nc(N)nc(NCCCNCCCCCCCCCNCCCNc2nc(N)nc(NC)n2)n1"
  Target Or System: "Adenosine transporter 1 (Trypanosoma brucei)"
  pKi: 6.12
- Molecule: "CN(C)c1nc(N)nc(CN(CCCNCCCCCCCCCCCCNCCCN(Cc2nc(N)nc(N(C)C)n2)Cc2nc(N)nc(N(C)C)n2)Cc2nc(N)nc(N(C)C)n2)n1"
  Target Or System: "Adenosine transporter 1 (Trypanosoma brucei)"
  pKi: 5.34
- Molecule: "CNc1nc(NC)nc(NCCCNCCCCCCCCCNCCCNc2nc(NC)nc(NC)n2)n1"
  Target Or System: "Adenosine transporter 1 (Trypanosoma brucei)"
  pKi: 4.85
- Molecule: "Nc1nc(N)nc(NCCCNCCCCNCCCNc2nc(N)nc(N)n2)n1"
  Target Or System: "Adenosine transporter 1 (Trypanosoma brucei)"
  pKi: 4.14
- Molecule: "Nc1nc(N)nc(CN(CCCNCCCCCCCCCCCCNCCCN(Cc2nc(N)nc(N)n2)Cc2nc(N)nc(N)n2)Cc2nc(N)nc(N)n2)n1"
  Target Or System: "Adenosine transporter 1 (Trypanosoma brucei)"
  pKi: 5.17
- Molecule: "CNc1nc(CN(CCCNCCCCCCCCCCCCNCCCN(Cc2nc(NC)nc(NC)n2)Cc2nc(NC)nc(NC)n2)Cc2nc(NC)nc(NC)n2)nc(NC)n1"
  Target Or System: "Adenosine transporter 1 (Trypanosoma brucei)"
  pKi: 5.62
- Molecule: "CNc1nc(NC)nc(NCCCNCCCCCCCCCNCCCN)n1"
  Target Or System: "Adenosine transporter 1 (Trypanosoma brucei)"
  pKi: 4.77
- Molecule: "CC(CNCCCNc1nc(N)nc(N)n1)NCCCNc1nc(N)nc(N)n1 (stereo not given)"
  Target Or System: "Adenosine transporter 1 (Trypanosoma brucei)"
  pKi: 3.79
- Molecule: "CN(C)c1nc(N)nc(NCCCNCCCCCCCCCCCCNCCCNc2nc(N)nc(N(C)C)n2)n1"
  Target Or System: "Adenosine transporter 1 (Trypanosoma brucei)"
  pKi: 6.62
- Molecule: "CN(C)c1nc(N)nc(NCCCNCCCCCCCCCNCCCNc2nc(N)nc(N(C)C)n2)n1"
  Target Or System: "Adenosine transporter 1 (Trypanosoma brucei)"
  pKi: 5.00
- Molecule: "Nc1nc(N)nc(NCCCNC2CCCCC2NCCCNc2nc(N)nc(N)n2)n1 (stereo not given)"
  Target Or System: "Adenosine transporter 1 (Trypanosoma brucei)"
  pKi: 4.26
